system_tested: p110α Type Ia human PI3K (Homo sapiens)
Construct: full length DNA of each of the p110α, p110β and p110δ Type Ia human PI3K p110 isoforms; 6-His; Grp1 PH domain made in E. coli
Sequence (P42336 whole entry, the tested form may be a part, canonical isoform): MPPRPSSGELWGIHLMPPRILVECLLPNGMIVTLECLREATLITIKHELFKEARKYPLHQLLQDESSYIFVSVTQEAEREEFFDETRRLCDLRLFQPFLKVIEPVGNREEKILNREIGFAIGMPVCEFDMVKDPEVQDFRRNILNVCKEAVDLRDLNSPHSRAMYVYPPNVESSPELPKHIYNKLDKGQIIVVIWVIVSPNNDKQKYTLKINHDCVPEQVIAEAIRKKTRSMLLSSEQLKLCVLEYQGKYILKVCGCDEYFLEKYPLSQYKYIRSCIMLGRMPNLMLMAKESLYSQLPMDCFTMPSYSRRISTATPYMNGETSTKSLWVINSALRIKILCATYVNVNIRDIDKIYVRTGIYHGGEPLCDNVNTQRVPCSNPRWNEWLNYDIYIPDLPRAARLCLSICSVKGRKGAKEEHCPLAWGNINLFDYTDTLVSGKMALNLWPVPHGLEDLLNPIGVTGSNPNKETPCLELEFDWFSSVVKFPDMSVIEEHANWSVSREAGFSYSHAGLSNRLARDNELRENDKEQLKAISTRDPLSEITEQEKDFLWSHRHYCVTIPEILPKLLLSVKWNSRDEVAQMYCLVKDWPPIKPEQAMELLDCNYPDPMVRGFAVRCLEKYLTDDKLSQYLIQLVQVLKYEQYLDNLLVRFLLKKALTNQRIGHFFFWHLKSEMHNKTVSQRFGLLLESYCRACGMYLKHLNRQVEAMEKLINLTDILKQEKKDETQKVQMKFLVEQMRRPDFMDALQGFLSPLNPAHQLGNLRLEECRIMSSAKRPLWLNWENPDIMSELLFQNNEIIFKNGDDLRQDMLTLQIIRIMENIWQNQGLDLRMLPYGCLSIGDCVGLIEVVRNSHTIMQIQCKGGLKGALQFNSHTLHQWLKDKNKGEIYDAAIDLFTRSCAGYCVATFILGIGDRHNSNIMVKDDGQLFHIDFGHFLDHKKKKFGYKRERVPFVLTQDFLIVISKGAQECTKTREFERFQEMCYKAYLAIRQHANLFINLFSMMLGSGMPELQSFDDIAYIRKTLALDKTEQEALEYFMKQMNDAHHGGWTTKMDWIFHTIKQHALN
Sequence (P27986 whole entry partner, the tested form may be a part, canonical isoform): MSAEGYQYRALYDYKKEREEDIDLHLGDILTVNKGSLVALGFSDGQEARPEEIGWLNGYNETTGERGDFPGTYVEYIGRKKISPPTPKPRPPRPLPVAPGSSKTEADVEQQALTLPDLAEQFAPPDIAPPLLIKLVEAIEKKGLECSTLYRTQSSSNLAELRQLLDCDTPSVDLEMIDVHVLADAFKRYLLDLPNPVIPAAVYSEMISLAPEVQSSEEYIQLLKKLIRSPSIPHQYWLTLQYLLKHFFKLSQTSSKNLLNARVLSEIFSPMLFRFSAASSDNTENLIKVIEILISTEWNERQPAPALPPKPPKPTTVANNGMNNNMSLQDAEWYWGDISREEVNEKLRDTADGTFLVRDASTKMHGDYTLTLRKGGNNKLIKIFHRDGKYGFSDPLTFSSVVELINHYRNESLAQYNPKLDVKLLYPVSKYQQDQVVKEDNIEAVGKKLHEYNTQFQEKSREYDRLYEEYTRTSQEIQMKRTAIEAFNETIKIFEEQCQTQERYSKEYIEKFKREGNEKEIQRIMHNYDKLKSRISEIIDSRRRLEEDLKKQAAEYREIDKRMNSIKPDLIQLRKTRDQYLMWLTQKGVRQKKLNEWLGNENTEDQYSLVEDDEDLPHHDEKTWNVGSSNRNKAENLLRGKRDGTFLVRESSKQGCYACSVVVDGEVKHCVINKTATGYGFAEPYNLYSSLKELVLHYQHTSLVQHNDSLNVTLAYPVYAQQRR
procedure_details: In vitro PI3K enzyme assay (AlphaScreen), Test (a)
condition_description: read-out: IC50 versus p110α Type Ia human PI3K
pIC50: −log10 of the molar value.
readout_label: pIC50

Q) Looking for the measured pIC50 of `NCC(=O)N1CCN(c2cc(N3CCOCC3)nc(-n3c(C(F)F)nc4ccccc43)n2)CC1` , can you help?
A) ~7.00
